Give activity change, negative = inhibition for every item shown.
assay_details: NFAT Signaling Pathway (AID 444);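 note: carbachol stimulus at about its EC50 of 1 µM final; % is set by controls: 0 for no effect and ±100 for the full control effect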
test_context: Jurkat NFAT-bla M1, carbachol, beta-lactamase ratio, 5 h; at 7.69 µM (top of the series) unless noted
Records with an inconclusive call do not appear. The source made the active and inactive calls. Calls come from the whole dose curve; as a rule, active = well fitted curve in either direction with a large enough effect (not every such curve was filed as active); inconclusive = small, poorly fitted or top-dose-only effect, or another doubt; inactive = flat fitted curve, though single readings scatter.

O=C(O)C[O][Sb][O]CC(=O)O = 6.08% (inactive)
O=[As](O)(O)c1ccc(N=Nc2ccc(O)cc2)cc1 = 9.82% (inactive)
Oc1ccc2c3c1O[C@@H]1c4[nH]c5c(c4C[C@@]4(O)[C@@H](C2)N(CC2CC2)CC[C@]314)C[C@]1(O)[C@@H]2Cc3ccc(O)c4c3[C@@]1(CCN2CC1CC1)[C@H]5O4 = -8.04% [at 38 µM] (inactive)

For each of the compounds below, state activity change, negative = inhibition.
1. C[n+]1c(/C=C\c2ccc(O)c3ncccc23)[se]c2ccccc21
2. NC(CCl)=N[C@H]1CN2CCC1CC2

-19% (inactive)
1.17% (inactive)

====

assay_details: qHTS assay for cell viability of HEK293 cells (AID 743288); note: % is set by controls: 0 for no effect and ±100 for the full control effect; nearly all actives have a fitted effect of over 50% in size
test_context: ATP luminescence (CellTiter-Glo), 18 h, stronger effect = lower value
Results filed as inconclusive are left out.
measurement_kind: max response (%)
Numbers only, in %.

Examples with answers:
Clc1ccccc1 = 10.9
Nc1ccc(-c2ccccc2)cc1 = -6.92
C(CCOCC1CO1)COCC1CO1 (stereo not given) = -15.1

For each of the molecules below, state max response.
1. O=P(OCCCl)(OCCCl)OCCCl
2. CC(C)OC(=O)Cc1ccccc1
3. O=C(O)CCl
4. Oc1cc(Cl)cc(Cl)c1
5. CN(C)c1ccc(N(C)C)cc1
6. COc1c(C(C)(C)C)cc([N+](=O)[O-])c(C)c1[N+](=O)[O-]

1. -2.52
2. -4.3
3. -4.45
4. 3.49
5. -3.92
6. -7.25

For each of the molecules below, state max response.
1. Cc1coc2c1CCC(C)C2 (stereo not given)
2. COc1ccccc1N

1: 2.25; 2: -0.892

For each of the molecules below, state max response.
1. O=C(O)C(Cl)Br (stereo not given)
2. CCCCC(=O)Cl
3. CC(Cl)CCl (stereo not given)
4. CCC[N+](=O)[O-]
5. N#CC(O)c1ccccc1 (stereo not given)

1. 6.83
2. 5.94
3. -4.06
4. 2.89
5. 2.16

For each of the molecules below, state max response.
1. Clc1cccc2ccccc12
2. C=C(Cl)CCl
3. Cl/C=C/Cl
4. ClCCBr
5. CCC(Cl)[N+](=O)[O-] (stereo not given)
6. COC(=O)Nc1cccc(OC(=O)Nc2cccc(C)c2)c1

1. -4.26
2. -2.76
3. -15.8
4. -0.276
5. -3.51
6. -7.47

For each of the molecules below, state max response.
1. c1ccc(P(c2ccccc2)c2ccccc2)cc1
2. [O-][Cl+]O
3. Cl/C=C/CCl
4. Nc1c(Br)cc([N+](=O)[O-])cc1[N+](=O)[O-]
5. Nc1ccc(Cl)c(Cl)c1
6. O=[N+]([O-])c1cccc(O)c1

[-11.3, -2.54, 2.26, -10.1, -1.26, -8.12]

For each of the molecules below, state max response.
1. O=[N+]([O-])c1ccccc1CCl
2. Oc1ccc(Cl)c(Cl)c1Cl
3. FC(Cl)(Cl)Cl
4. Oc1cccc(Cl)c1

1: 2.01; 2: -4.77; 3: -1.1; 4: 0.616

For each of the molecules below, state max response.
1. O=[N+]([O-])c1ccccc1-c1ccccc1
2. Nc1cc(Cl)ccc1O
3. COP(=S)(OC)SCn1nnc2ccccc2c1=O

1: 0.829; 2: -15.2; 3: -22

====

Give activity change, negative = inhibition for every item shown.
assay_details: AP1 Signaling Pathway (AID 357);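 note: ME-180 reporter cells stimulated with EGF at its EC50 level; % is set by controls: 0 for no effect and ±100 for the full control effect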
test_context: ME-180 (cervical carcinoma) AP-1-bla reporter, EGF-induced, beta-lactamase ratio, 5 h; at 7.69 µM (top of the series) unless noted
Records with an inconclusive call do not appear. The source made the active and inactive calls. The call rests on the fitted dose curve; in most records, active means well fitted curve in either direction with a large enough effect (not every such curve was filed as active); inconclusive means small, poorly fitted or top-dose-only effect, or another doubt; inactive means flat fitted curve, though single readings scatter.

Examples with answers:
O=C(O)[C@@H](Br)[C@H](Br)C(=O)O = -8.85% (inactive)
O=C(O)Cc1ccc([N+](=O)[O-])cc1[N+](=O)[O-] = -0.903% (inactive)
CC1(C)N=C(N)N=C(N)N1c1cccc(C(=O)Nc2ccc(S(=O)(=O)F)cc2)c1 = -0.165% (inactive)
CC(C)[C@]1(O)[C@@H](OC(=O)c2ccc[nH]2)[C@]2(O)[C@@]3(C)C[C@@]4(O)O[C@@]5([C@H](O)[C@@H](C)CC[C@]35O)[C@]2(O)[C@]41C = 3.13% (inactive)
CO[C@@H]1CC=C2CCN3CCC4=C(CC(=O)OC4)[C@]23C1 = 6.22% [at 38 µM] (inactive)
C[C@@H]1CC[C@@H]2N(C1)C[C@H]1[C@@](O)([C@H](O)C[C@]3(O)[C@H]4CC[C@H]5[C@]6(O)O[C@]4(C[C@]13O)[C@@]5(C)CC[C@@H]6O)[C@@]2(C)O = 0.655% (inactive)

For each of the molecules below, state activity change, negative = inhibition.
1. C[C@@]12CC[C@H]3[C@@H](CC[C@@H]4C[C@H](O)CC[C@]43C)[C@H]1CC[C@H]2O
2. O=C(Nc1ccc([As](=O)(O)O)cc1)Nc1cccc(Cl)c1Cl

-12.3% [at 38 µM] (inactive)
-0.577% (inactive)

====

study_system: Fructose-bisphosphate aldolase A (Oryctolagus cuniculus) (UniProt P00883)
Sequence (P00883 whole entry, looked up): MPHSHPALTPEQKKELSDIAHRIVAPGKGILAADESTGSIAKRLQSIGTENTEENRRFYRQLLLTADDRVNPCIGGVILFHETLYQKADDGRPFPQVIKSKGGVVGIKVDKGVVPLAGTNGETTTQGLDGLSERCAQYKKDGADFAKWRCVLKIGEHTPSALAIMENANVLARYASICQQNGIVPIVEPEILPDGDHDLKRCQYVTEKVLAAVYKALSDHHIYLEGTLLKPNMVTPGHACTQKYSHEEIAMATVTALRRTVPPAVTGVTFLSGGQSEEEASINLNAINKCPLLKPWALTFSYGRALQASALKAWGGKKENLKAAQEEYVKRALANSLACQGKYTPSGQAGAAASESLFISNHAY
assay_details: qHTS Assay for Inhibitors of Fructose-1,6-bisphosphate Aldolase from Giardia Lamblia: Rabbit FBPA Selectivity (AID 2794); note: % is set by controls: 0 for no effect and ±100 for the full control effect; nearly all actives have a fitted effect of over 60% in size
test_context: Rabbit muscle FBPA enzyme inhibition, selectivity counter-screen; series mostly up to 57.5 µM
Source text: NIH Chemical Genomics Center [NCGC] NIH Molecular Libraries Probe Production centers Network [MLPCN] Assay Provider: Osnat Herzberg, University of Maryland The objective of this project is to obtain compounds that inhibit Giardia lamblia growth. G. lamblia is a human pathogen which afflicts impoverished nations; it is the most common cause of outbreaks of diarrhea in the United States. […] 6,Detector,525 nm/598 nm (Fluorescence),ViewLux Fluorescence Read (Read 1) […]
This is one part of the list. Results filed as inconclusive are left out. Activity calls are given as the source filed them. Calls come from the whole dose curve; as a rule, active = well fitted inhibition curve with a large enough effect; inconclusive = small, poorly fitted or top-dose-only effect; inactive = flat fitted curve, though single readings scatter.
measurement_kind: outcome

COc1ccc(CNCCc2c[nH]c3ccccc23)cc1OC = inactive
CCCCC(=O)N/N=C/c1c(O)n(-c2ccccc2)c(=O)[nH]c1=O = inactive
O=C(NC(=S)N1C[C@H]2C[C@H](C1)c1cccc(=O)n1C2)c1ccc(F)cc1 = inactive
COc1ccccc1CN1CCN(C(=O)Cc2ccccc2)CC1 = inactive

====

Give max response for every item shown.
assay_details: qHTS assay for small molecule antagonists of peroxisome proliferator-activated receptor delta signaling (AID 588535);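 note: cells co-treated with a PPAR-delta agonist as stimulator during compound exposure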
test_context: HEK293T PPARd-UAS-bla, beta-lactamase FRET ratio, 18 h; 460 nm channel
From the text: NIH Chemical Genomics Center [NCGC] U.S. Environmental Protection Agency [EPA] National Institutes of Environmental Health Sciences [NIEHS] National Toxicology Program [NTP] NCGC Assay Overview The Peroxisome proliferator-activated receptors (PPARs) are lipid-activated transcription factors of the nuclear receptor superfamily with three distinct subtypes namely PPAR alpha, PPAR delta (also called PPAR beta) and PPAR gamma. […]
Results filed as inconclusive are left out.
Numbers only, in %.

Examples with answers:
CC(C)[N+](=O)[O-] = 7.55
COC(=O)c1ccccc1N = -46.7
O=[N+]([O-])c1ccc2c3c(cccc13)CC2 = 24.6
CC(C)(Cl)Cl = -19.4
CCCCC(=O)Cl = 20
O=[N+]([O-])/C=C/c1ccccc1 = 20.9
CCC[N+](=O)[O-] = -21.5
C=CC(=O)OCC(C)C = -6.69
CCSC(=O)N1CCCCCC1 = -18
ClC(Cl)Br = -6.86

For each of the compounds below, state max response.
1. O=C(O)c1cc(Cl)ccc1Cl
2. Cc1cc(-c2cc(C)c(N)c(C)c2)cc(C)c1N
3. CCN(N=O)C(N)=O
4. Clc1cccc2ccccc12
5. ClCCBr
6. ClC(Cl)c1ccccc1
7. Clc1cccc(Cl)c1Cl

1: 35.4; 2: 7.84; 3: -10.7; 4: -15.1; 5: -34.3; 6: 17.7; 7: -24.3

====

assay_details: Cellular Toxicity (caspase-3) N2a (AID 665);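 note: compound exposure lasted 16 h at 37 °C before readout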
test_context: N2a cells, luminescence, normalized: DMSO 0%, 10 µM staurosporine 100%; series mostly up to 92.2 µM
The source made the active and inactive calls. Calls come from the whole dose curve; as a rule, active = well fitted activation curve with a large enough effect; inconclusive = small, poorly fitted or top-dose-only effect; inactive = flat fitted curve, though single readings scatter.
measurement_kind: outcome

Examples with answers:
Cl/C=C/CCl = inactive
CC(C)(C)C(O)(CCc1ccc(Cl)cc1)Cn1cncn1 (centres undefined) = inactive
Nc1ccc(Cl)c(Cl)c1 = inactive
Cc1cnc[nH]1 = inactive
O=[N+]([O-])c1ccccc1-c1ccccc1 = inactive
C=CC(=O)OC = inactive
CC(C)C#N = inactive
CCN(N=O)C(N)=O = inactive

Now for another entry.
Item under review: O=[N+]([O-])c1cccc(CCl)c1 . Reported outcome?
inactive
